# TARGET OR SYSTEM: Coagulation Factor Xa, from human plasma (human, UniProt P00742 41-488, limits assumed)
# Sequence (P00742 41-488 limits assumed): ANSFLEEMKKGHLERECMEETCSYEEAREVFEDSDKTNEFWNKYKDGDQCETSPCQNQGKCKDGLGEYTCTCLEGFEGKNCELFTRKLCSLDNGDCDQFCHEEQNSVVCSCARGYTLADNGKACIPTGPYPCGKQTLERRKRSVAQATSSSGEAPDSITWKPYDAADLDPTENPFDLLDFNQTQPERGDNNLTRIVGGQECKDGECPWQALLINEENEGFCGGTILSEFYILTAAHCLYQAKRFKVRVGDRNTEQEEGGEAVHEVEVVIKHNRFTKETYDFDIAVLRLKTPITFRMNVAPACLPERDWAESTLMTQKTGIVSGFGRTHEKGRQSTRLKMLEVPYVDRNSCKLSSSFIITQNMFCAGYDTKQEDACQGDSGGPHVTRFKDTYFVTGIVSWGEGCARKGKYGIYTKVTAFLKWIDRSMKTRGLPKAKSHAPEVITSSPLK
# RUN DESCRIPTION: cell-based or functional assay
OBSERVABLE: % inhibition at 100 µM

BINDER	OBSERVABLE	VALUE
ICTKSDPPXCR (HELM PEPTIDE1{I.C.T.K.S.D.P.P.[Cha].C.R.[dP].P}$PEPTIDE1,PEPTIDE1,2:R3-10:R3|PEPTIDE1,PEPTIDE1,1:R1-13:R2$$$V2.0; SMILES CC[C@H](C)[C@@H]1NC(=O)[C@@H]2CCCN2C(=O)[C@H]2CCCN2C(=O)[C@H](CCCNC(=N)N)NC(=O)[C@@H]2CSSC[C@H](NC1=O)C(=O)N[C@@H]([C@@H](C)O)C(=O)N[C@@H](CCCCN)C(=O)N[C@@H](CO)C(=O)N[C@@H](CC(=O)O)C(=O)N1CCC[C@H]1C(=O)N1CCC[C@H]1C(=O)N[C@@H](CC1CCCCC1)C(=O)N2) [Example 20]	% inhibition at 100 µM	25%

Supply measured % inhibition at 100 µM of YCTKSDPPICY (HELM PEPTIDE1{Y.C.T.K.S.D.P.P.I.C.Y.[dP].P}$PEPTIDE1,PEPTIDE1,2:R3-10:R3|PEPTIDE1,PEPTIDE1,1:R1-13:R2$$$V2.0; SMILES CC[C@H](C)[C@@H]1NC(=O)[C@@H]2CCCN2C(=O)[C@@H]2CCCN2C(=O)[C@H](CC(=O)O)NC(=O)[C@H](CO)NC(=O)[C@H](CCCCN)NC(=O)[C@H]([C@@H](C)O)NC(=O)[C@@H]2CSSC[C@H](NC1=O)C(=O)N[C@@H](Cc1ccc(O)cc1)C(=O)N1CCC[C@@H]1C(=O)N1CCC[C@H]1C(=O)N[C@@H](Cc1ccc(O)cc1)C(=O)N2) [Example 26] in your reply.
6%
